For each entry below, report its pIC50 value.
# system name: human DGKα (Homo sapiens, UniProt P23743)
# Construct: TVMV protease cleavage site (C); Hexa-His (C); made in house; host or cells: Sf9 insect cells (baculovirus, Bac-to-Bac)
# Sequence (P23743 with tags, fused parts or gaps): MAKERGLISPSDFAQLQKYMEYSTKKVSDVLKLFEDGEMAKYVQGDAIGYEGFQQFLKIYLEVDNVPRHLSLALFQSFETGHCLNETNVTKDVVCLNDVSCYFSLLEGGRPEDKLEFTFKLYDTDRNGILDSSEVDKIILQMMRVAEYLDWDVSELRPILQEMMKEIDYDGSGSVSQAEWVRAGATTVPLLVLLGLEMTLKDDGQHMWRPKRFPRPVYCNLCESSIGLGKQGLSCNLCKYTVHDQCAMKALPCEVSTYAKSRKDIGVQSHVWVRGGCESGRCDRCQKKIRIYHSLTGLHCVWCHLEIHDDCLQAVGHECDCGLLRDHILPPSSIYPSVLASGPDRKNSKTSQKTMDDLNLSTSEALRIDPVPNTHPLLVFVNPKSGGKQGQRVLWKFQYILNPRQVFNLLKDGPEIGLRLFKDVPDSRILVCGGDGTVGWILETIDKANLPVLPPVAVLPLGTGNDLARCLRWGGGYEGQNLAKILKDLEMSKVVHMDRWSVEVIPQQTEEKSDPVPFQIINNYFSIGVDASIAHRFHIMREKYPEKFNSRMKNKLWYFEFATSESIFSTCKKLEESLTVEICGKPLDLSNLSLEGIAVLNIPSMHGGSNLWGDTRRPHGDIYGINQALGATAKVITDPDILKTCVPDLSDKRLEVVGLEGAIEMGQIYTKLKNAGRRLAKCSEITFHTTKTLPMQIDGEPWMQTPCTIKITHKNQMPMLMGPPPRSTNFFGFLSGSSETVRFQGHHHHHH
# method notes: DGKα LIPGLO assay (extruded liposome substrate), in vitro DGK inhibition
# Assay type: biochemical
# reported conditions: liposome (LIPGLO) assay; read-out: DGKa LIPGLO IC50
Reminder that pIC50 means the negative base-10 logarithm of the concentration expressed in mol/L.

Q: Please report pIC50 for the following compound: CC(c1ccc(C2CC2)cc1)N1C[C@H](C)N(c2cc(=O)n(C)c3ccc(C#N)nc23)C[C@H]1C (single isomer, unassigned) [Example 1215]
Ans: 6.14

Q: Please report pIC50 for the following compound: C[C@@H]1CN(c2cc(=O)n(C)c3ccc(C#N)nc23)[C@@H](C)CN1C(c1ccccc1)c1ccccc1Cl (some centres unmarked)
Ans: 5.51

Q: Please report pIC50 for the following compound: C[C@@H]1CN(c2cc(=O)n(C)c3ccc(C#N)nc23)[C@@H](C)CN1C(c1ccc(F)cc1)c1cn(C)cn1 (some centres unmarked)
Ans: 6.00

Q: Please report pIC50 for the following compound: CCc1ccc(C(c2cccc(F)c2)N2C[C@H](C)N(c3cc(=O)n(C)c4ccc(C#N)nc34)C[C@H]2C)nc1 (single isomer, unassigned) [Example 351]
Ans: 6.19

Q: Please report pIC50 for the following compound: C[C@@H]1CN(c2cc(=O)[nH]c3ccc(C#N)nc23)[C@@H](C)CN1C(c1ccc(F)cc1)c1ccc(C#N)cc1 (single isomer, unassigned) [Example 1337]
Ans: 5.74

Q: Please report pIC50 for the following compound: COc1cc(F)ccc1C(C)N1C[C@H](C)N(c2cc(=O)n(C)c3ccc(C#N)nc23)C[C@H]1C (single isomer, unassigned) [Example 1237]
Ans: 5.21

Q: Please report pIC50 for the following compound: C[C@@H]1CN(c2cc(=O)n(C)c3ccc(C#N)nc23)[C@@H](C)CN1C(c1ccc(F)cc1)c1ccc(C(F)(F)F)cn1 (single isomer, unassigned) [Example 681]
Ans: 7.00

Q: Please report pIC50 for the following compound: CC[C@@H]1CN(c2cc(=O)n(C)c3ccc(C#N)nc23)[C@@H](C)CN1C(c1ccc(Cl)cc1)c1ccccn1 (single isomer, unassigned) [Example 423]
Ans: 7.57

Q: Please report pIC50 for the following compound: C[C@@H]1CN(c2cc(=O)n(C)c3ccc(C#N)nc23)[C@@H](C)CN1C(c1ccc(Cl)cc1)c1ccccn1 (single isomer, unassigned) [Example 382]
Ans: 6.66

Q: Please report pIC50 for the following compound: C[C@@H]1CN(c2cc(=O)n(C)c3ccc(C#N)nc23)[C@@H](C)CN1C(c1ccc(F)cc1)c1nc(C2CN(C)C2)no1 (single isomer, unassigned) [Example 1299]
Ans: 4.05

---

# system name: human DGKζ (Homo sapiens)
# Construct: TVMV protease cleavage site (C); Hexa-His (C); made in house; host or cells: Sf9 insect cells (baculovirus, Bac-to-Bac)
# method notes: DGKζ LIPGLO assay (extruded liposome substrate), in vitro DGK inhibition
# Type: biochemical
# reported conditions: liposome (LIPGLO) assay; read-out: DGKz LIPGLO IC50
outcome measure: IC50 (nM)
Could you give me the number in nM? Just the number is fine.

Q: Please report IC50 for the following compound: `C[C@H]1CN(C(c2ccc(F)cc2)c2ccc(F)cc2)[C@H](CN(C)C)CN1c1cc(=O)n(C)c2ccc(C#N)nc12`
Ans: 6200

Q: Please report IC50 for the following compound: COc1ccc(C(C)N2C[C@H](C)N(c3cc(=O)n(C)c4ccc(C#N)nc34)C[C@H]2C)cc1C(F)(F)F (stereo partly drawn) [Example 1250]
Ans: 1700

Q: Please report IC50 for the following compound: Cc1ccc(C(c2ccc(F)cc2)N2C[C@H](C)N(c3cc(=O)n(C)c4ccc(C#N)nc34)C[C@H]2C)cc1 (single isomer, unassigned) [Example 252]
Ans: 440

---

# system name: human DGKζ (Homo sapiens)
# Construct: TVMV protease cleavage site (C); Hexa-His (C); made in house; host or cells: Sf9 insect cells (baculovirus, Bac-to-Bac)
# method notes: DGKζ LIPGLO assay (extruded liposome substrate), in vitro DGK inhibition
# Assay type: biochemical
# reported conditions: liposome (LIPGLO) assay; read-out: DGKz LIPGLO IC50
pIC50: −log10 of the molar value.
// label = Satisfied if pIC50 is not less than 6, otherwise Not satisfied

Q: Textbook exercise: given the entry CCn1cc(F)c2c(CN3C[C@H](C)N(c4cc(=O)n(C)c5ccc(C#N)nc45)C[C@H]3C)cccc21 [Example 596] , state whether its pIC50 is greater than or equal to 6.
Ans: Satisfied

Q: Textbook exercise: given the entry CC(c1cc(F)cc(OC(F)(F)F)c1)N1C[C@H](C)N(c2cc(=O)n(C)c3ccc(C#N)nc23)C[C@H]1C (single isomer, unassigned) [Example 1210] , state whether its pIC50 is greater than or equal to 6.
Ans: Satisfied

Q: Textbook exercise: given the entry C[C@@H]1CN(c2cc(=O)n(C)c3ccc(C#N)nc23)[C@@H](C)CN1C(c1ccc(F)cc1)c1cc(F)ccn1 (stereo partly drawn) [Example 472] , state whether its pIC50 is greater than or equal to 6.
Ans: Not satisfied

Q: Textbook exercise: given the entry C[C@@H]1CN(c2cc(=O)n(C)c3ccc(C#N)nc23)[C@@H](C)CN1C(c1ccc(F)cc1)c1nccn1C (stereo partly drawn) [Example 714] , state whether its pIC50 is greater than or equal to 6.
Ans: Not satisfied

Q: Textbook exercise: given the entry Cc1cccc(C(c2cccc(F)c2)N2C[C@H](C)N(c3cc(=O)n(C)c4ccc(C#N)nc34)C[C@H]2C)n1 (single isomer, unassigned) [Example 470] , state whether its pIC50 is greater than or equal to 6.
Ans: Not satisfied

Q: Textbook exercise: given the entry COC(=O)C1CN(c2cc(=O)n(C)c3ccc(C#N)nc23)CCN1C(c1ccc(F)cc1)c1ccc(F)cc1OC (single isomer, unassigned) [Example 71] , state whether its pIC50 is greater than or equal to 6.
Ans: Not satisfied

Q: Textbook exercise: given the entry Cn1c(=O)cc(N2CCN(C(c3ccc(F)cc3)c3ccc(F)cc3)C(CO)C2)c2nc(C#N)ccc21 (single isomer, unassigned) [Example 2] , state whether its pIC50 is greater than or equal to 6.
Ans: Not satisfied

Q: Textbook exercise: given the entry CC(c1cc(F)c(F)c(F)c1)N1C[C@H](C)N(c2cc(=O)n(C)c3ccc(C#N)nc23)C[C@H]1C (single isomer, unassigned) [Example 1240] , state whether its pIC50 is greater than or equal to 6.
Ans: Satisfied

Q: Textbook exercise: given the entry CC[C@H]1CN(C(c2ccc(F)cc2)c2ccc(C(F)(F)F)cn2)[C@H](CC)CN1c1cc(=O)n(C)c2ccc(C#N)nc12 (stereo partly drawn) [Example 1039] , state whether its pIC50 is greater than or equal to 6.
Ans: Satisfied

Q: Textbook exercise: given the entry CC[C@@H]1CN(c2cc(=O)n(C)c3ccc(C#N)nc23)[C@@H](C)CN1C(c1ccc(F)cc1)c1cccc(C(F)(F)F)n1 (stereo partly drawn) [Example 1112] , state whether its pIC50 is greater than or equal to 6.
Ans: Satisfied

Q: Textbook exercise: given the entry Cc1ncc(C(c2ccc(Cl)cc2)N2C[C@H](C)N(c3cc(=O)n(C)c4ccc(C#N)nc34)C[C@H]2C)cn1 (stereo partly drawn) [Example 385] , state whether its pIC50 is greater than or equal to 6.
Ans: Not satisfied

Q: Textbook exercise: given the entry C[C@@H]1CN(c2cc(=O)n(C)c3ccc(C#N)nc23)[C@@H](C)CN1C(c1ccc(F)cc1)c1cccc(C(F)F)n1 (single isomer, unassigned) [Example 696] , state whether its pIC50 is greater than or equal to 6.
Ans: Satisfied

---

# system name: human DGKζ (Homo sapiens, UniProt Q13574)
# Construct: TVMV protease cleavage site (C); Hexa-His (C); made in house; host or cells: Sf9 insect cells (baculovirus, Bac-to-Bac)
# Sequence (Q13574 with tags, fused parts or gaps isoform Q13574-4): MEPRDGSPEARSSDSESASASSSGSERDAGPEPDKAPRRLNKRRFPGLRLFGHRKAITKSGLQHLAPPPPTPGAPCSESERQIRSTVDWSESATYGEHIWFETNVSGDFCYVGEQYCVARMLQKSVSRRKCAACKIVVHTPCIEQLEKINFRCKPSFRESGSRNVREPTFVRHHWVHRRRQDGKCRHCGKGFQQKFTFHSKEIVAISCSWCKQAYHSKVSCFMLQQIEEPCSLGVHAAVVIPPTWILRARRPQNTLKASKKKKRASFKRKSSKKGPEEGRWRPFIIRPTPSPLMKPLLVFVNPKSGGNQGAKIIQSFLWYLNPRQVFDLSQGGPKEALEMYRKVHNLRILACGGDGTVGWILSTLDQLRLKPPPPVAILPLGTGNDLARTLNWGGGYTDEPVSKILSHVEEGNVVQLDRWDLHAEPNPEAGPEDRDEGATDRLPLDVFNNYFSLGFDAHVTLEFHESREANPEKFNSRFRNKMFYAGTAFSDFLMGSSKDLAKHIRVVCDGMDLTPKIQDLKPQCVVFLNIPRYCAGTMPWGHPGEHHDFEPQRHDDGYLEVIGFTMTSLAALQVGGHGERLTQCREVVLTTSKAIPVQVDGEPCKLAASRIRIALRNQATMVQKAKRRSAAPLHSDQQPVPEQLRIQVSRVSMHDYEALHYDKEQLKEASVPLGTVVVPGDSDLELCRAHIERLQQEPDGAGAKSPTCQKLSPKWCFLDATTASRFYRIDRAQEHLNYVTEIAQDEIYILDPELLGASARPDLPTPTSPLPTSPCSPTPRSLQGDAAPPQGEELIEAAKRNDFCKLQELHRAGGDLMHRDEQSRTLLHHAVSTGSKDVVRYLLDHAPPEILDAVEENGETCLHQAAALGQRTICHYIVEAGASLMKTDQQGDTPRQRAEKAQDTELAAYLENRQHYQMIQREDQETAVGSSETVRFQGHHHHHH
# method notes: DGKζ LIPGLO assay (extruded liposome substrate), in vitro DGK inhibition
# Type: biochemical
# reported conditions: liposome (LIPGLO) assay; read-out: DGKz LIPGLO IC50
For each entry below, report its IC50 value.
Could you give me the number in nM? Just the number is fine.

Q: Please report IC50 for the following compound: Cc1ccc(C(c2ccc(C#N)cc2)N2C[C@H](C)N(c3c(F)c(=O)n(C)c4ccc(C#N)nc34)C[C@H]2C)cc1 (stereo partly drawn) [Example 322]
Ans: 2200

Q: Please report IC50 for the following compound: CC[C@@H]1CN(c2cc(=O)n(C)c3ccc(C#N)nc23)[C@@H](CC)CN1Cc1ccc(F)cc1F [Example 1062]
Ans: 76

Q: Please report IC50 for the following compound: CC[C@@H]1CN(c2cc(=O)n(C)c3ccc(C#N)nc23)[C@@H](C)CN1C(c1ccc(F)cc1)c1ccc(C(F)(F)F)cn1 (single isomer, unassigned) [Example 1106]
Ans: 120

Q: Please report IC50 for the following compound: Cc1nccc(C(c2ccc(F)cc2)N2C[C@H](C)N(c3cc(=O)n(C)c4ccc(C#N)nc34)C[C@H]2C)n1 (single isomer, unassigned) [Example 389]
Ans: 1100

Q: Please report IC50 for the following compound: CC(c1cc(OC(F)(F)F)ccc1F)N1C[C@H](C)N(c2cc(=O)n(C)c3ccc(C#N)nc23)C[C@H]1C (stereo partly drawn) [Example 1203]
Ans: 1600

Q: Please report IC50 for the following compound: CC[C@@H]1CN(c2cc(=O)n(C)c3ccc(C#N)nc23)[C@@H](C)CN1C(c1ccc(F)cc1)c1ccc(F)cc1 [Example 1097]
Ans: 210
